Examples of compounds with documented IC50 follow.
# System: Total ATXN3 (tATXN3) protein
# assay_comment: Endogenous Total ATXN3 (tATXN3) Protein Assay (MSD immunoassay of cell lysates)
# Format: cell-based
# experimental_parameters: average IC50, total ATXN3 protein in cell lysate after 48 h with compound (Table 1)

Study these solved cases before continuing.
- compound: "N[C@@H]1CCCCCC[C@@H]1c1cc2nc(Cl)cc(NCc3cccs3)c2s1 [Compound 106]"
  reported_endpoint: "IC50"
  reading: "> 1000 nM"
- compound: "[2H]C1=C([2H])C([2H])([2H])[C@@H](c2sc3c(NCc4ccco4)nc(Cl)nc3c2C)[C@H](N)C1([2H])[2H] [Compound 449]"
  reported_endpoint: "IC50"
  reading: "30 to 300 nM"
- compound: "N[C@@H]1CC(F)(F)CC[C@@H]1c1sc2c(NCc3cccs3)cc(Cl)nc2c1Br.N[C@H]1CC(F)(F)CC[C@H]1c1sc2c(NCc3cccs3)cc(Cl)nc2c1Br (mixture of isomers) [Compound 30]"
  reported_endpoint: "IC50"
  reading: "> 1000 nM"
- compound: "N[C@H]1CC=CC[C@@H]1c1sc2c(NCc3ccccc3)nc(Cl)nc2c1I [Compound 229]"
  reported_endpoint: "IC50"
  reading: "≤ 30 nM"

Which IC50 reading was recorded for the compound Cc1c([C@H]2CC=CC[C@@H]2N)sc2c(NCc3nccs3)nc(Cl)nc12 [Compound 223] ? ≤ 30 nM

For the compound shown here, Cc1c([C@@]2(F)CCC[C@@H]2N)sc2c(NCc3ccco3)nc(Cl)nc12 [Compound 128] , give the reported IC50. > 1000 nM

Which measured IC50 value corresponds to N[C@H]1CCC[C@@H]1c1sc2c(NCc3cccs3)cc(Cl)nc2c1Br [Compound 8] ? ≤ 30 nM

What does the data say about its IC50? Entry: N[C@@H]1CC=CC[C@H]1c1sc2c(NCc3ccccc3)cc(Cl)nc2c1Cl [Compound 404] 30 to 300 nM

Name the reported IC50 value associated with the compound N[C@H]1CCCCCC[C@H]1c1sc2c(NCc3cccs3)cc(Cl)nc2c1Cl [Compound 91] > 1000 nM

Can you share its IC50? I mean this compound: N[C@@H]1CCCC[C@H]1c1sc2c(NCc3cccs3)cc(Cl)nc2c1I [Compound 58] > 1000 nM

Could you share which IC50 value was measured for N[C@H]1CC=CC[C@@H]1c1sc2c(NCc3ccccc3)cc(Cl)nc2c1I [Compound 190] ? ≤ 30 nM

Entry under review: N[C@@H]1CCCO[C@H]1c1c(I)c2nc(Cl)nc(NCc3cccs3)c2n1C(F)F [Compound 416] . Reported IC50? 30 to 300 nM

Return reported IC50; argument: Cc1c([C@H]2CC=CC[C@@H]2N)sc2c(NCc3ccco3)cc(C#N)nc12 [Compound 289] 30 to 300 nM

Endpoint output: IC50 of N[C@@H]1CC=CC[C@H]1c1c(Cl)c2nc(Cl)cc(NCc3ccccc3)c2n1C(F)F [Compound 417] . Value? ≤ 30 nM

====

# System: Total ATXN3 (tATXN3) protein
# assay_comment: Endogenous Total ATXN3 (tATXN3) Protein Assay (MSD immunoassay of cell lysates)
# Assay type: cell-based
# experimental_parameters: average IC50, total ATXN3 protein in cell lysate after 48 h with compound (Table 1)
pIC50: −log10 of the molar value.
Below: a set of entries, each annotated with reported pIC50.

Answered cases to consult:
- compound: "Cc1c([C@@H]2CCCC[C@H]2N)sc2c(NCc3ccco3)cc(Cl)nc12"
  reading: "< 6.00"
- compound: "N[C@@H]1CCC[C@H]1c1sc2c(NCc3cccs3)cc(Cl)nc2c1Br"
  reading: "6.00 to 6.52"
- compound: "Cc1c([C@H]2CCCCC[C@@H]2N)sc2c(NCc3cccs3)cc(Cl)nc12"
  reading: "6.52 to 7.52"
- compound: "N[C@@H]1CC=CC[C@H]1c1sc2c(NCc3nccs3)cc(Cl)nc2c1Cl"
  reading: "6.52 to 7.52"

Look up pIC50 with Total ATXN3 (tATXN3) protein for this compound: Cc1c([C@H]2CCCC[C@@H]2N)sc2c(NCc3ccccc3)cc(Cl)nc12 6.52 to 7.52

What pIC50 appears in the records for this compound with Total ATXN3 (tATXN3) protein? N[C@@H]1CCCO[C@H]1c1c(Cl)c2nc(Cl)nc(NCc3cccs3)c2n1C(F)F.N[C@H]1CCCO[C@@H]1c1c(Cl)c2nc(Cl)nc(NCc3cccs3)c2n1C(F)F (mixture of isomers) 6.52 to 7.52

Entry N[C@H]1CCCO[C@@H]1c1c(Cl)c2nc(Cl)nc(NCc3ccco3)c2n1C(F)F [Compound 244] , system Total ATXN3 (tATXN3) protein: what pIC50 was measured? ≥ 7.52

====

# IC50 per record follows
# Tested on: Total ATXN3 (tATXN3) protein
# assay_comment: Endogenous Total ATXN3 (tATXN3) Protein Assay (MSD immunoassay of cell lysates)
# Type: cell-based
# experimental_parameters: average IC50, total ATXN3 protein in cell lysate after 48 h with compound (Table 1)
# Protocol: Endogenous Total ATXN3 (tATXN3) Protein Assay Meso Scale Discovery (MSD) 96-well or 384-well plates were coated overnight at 4° C. with Ataxin 3 mouse monoclonal antibody (Invitrogen, MA3-082) at a concentration of 0.5 μg/mL in PBS (30 μL per well). […] Cells were thawed and incubated in cell culture media (DMEM, 10% FBS, and 1% antibiotic cocktail) for 72 h. Cells were trypsinized, counted, and re-suspended to a concentration of 100,000 cells/mL in cell culture media. […]

Field: example entries. Status: answers known.
- compound: "N[C@@H]1CCCO[C@H]1c1sc2c(NCc3ccco3)cc(Cl)nc2c1Cl [Compound 119]"
  IC50: "> 1000 nM"
- compound: "Cc1c([C@H]2CCCCCC[C@@H]2N)sc2c(NCc3cccs3)cc(Cl)nc12 [Compound 94]"
  IC50: "300 to 1000 nM"
- compound: "Cc1c([C@H]2CC=CC[C@@H]2N)sc2c(NCc3ccccc3)nc(Cl)nc12 [Compound 326]"
  IC50: "30 to 300 nM"

// moving on: another record for IC50
Look at this compound and give its reported IC50. Cc1c([C@H]2CC=C(C(=O)Nc3ccccc3)C[C@@H]2N)sc2c(NCc3cccs3)cc(Cl)nc12 [Compound 353] 30 to 300 nM

====

# Tested on: Total ATXN3 (tATXN3) protein
# assay_comment: Endogenous Total ATXN3 (tATXN3) Protein Assay (MSD immunoassay of cell lysates)
# Format: cell-based
# experimental_parameters: average IC50, total ATXN3 protein in cell lysate after 48 h with compound (Table 1)
# Method: Endogenous Total ATXN3 (tATXN3) Protein Assay Meso Scale Discovery (MSD) 96-well or 384-well plates were coated overnight at 4° C. with Ataxin 3 mouse monoclonal antibody (Invitrogen, MA3-082) at a concentration of 0.5 μg/mL in PBS (30 μL per well). […] Cells were thawed and incubated in cell culture media (DMEM, 10% FBS, and 1% antibiotic cocktail) for 72 h. Cells were trypsinized, counted, and re-suspended to a concentration of 100,000 cells/mL in cell culture media. […]
pIC50: −log10 of the molar value.
pIC50 by entry:

- compound: "N[C@@H]1CC=CC[C@H]1c1sc2c(NCc3cccs3)cc(Cl)nc2c1I.N[C@H]1CC=CC[C@@H]1c1sc2c(NCc3cccs3)cc(Cl)nc2c1I (mixture of isomers) [Compound 209]"
  assayed_target: "Total ATXN3 (tATXN3) protein"
  reading: "≥ 7.52"
- compound: "N[C@H]1CCCC[C@@H]1c1sc2c(NCC3=CCCC3)cc(Cl)nc2c1Br"
  assayed_target: "Total ATXN3 (tATXN3) protein"
  reading: "6.52 to 7.52"

Reported pIC50 for N[C@@H]1CCC[C@H]1c1sc2c(NCc3ccco3)cc(Cl)nc2c1Cl : what is it? < 6.00

Item N[C@@H]1CCCO[C@H]1c1sc2c(NCc3ccccc3)cc(Cl)nc2c1Br has what recorded pIC50? < 6.00

Query (compound): Cc1c([C@@H]2CC=CC[C@H]2N)sc2c(NCc3ccco3)cc(Cl)nc12 ; field requested: pIC50 6.52 to 7.52

Give the measured pIC50 of N[C@@H]1CC=CC[C@@H]1c1sc2c(NCc3cccs3)cc(Cl)nc2c1Br.N[C@H]1CC=CC[C@H]1c1sc2c(NCc3cccs3)cc(Cl)nc2c1Br (racemic) . ≥ 7.52

Entry N[C@@H]1CCCC[C@H]1c1sc2c(NCc3cccs3)cc(Cl)nc2c1Br has what pIC50? 6.52 to 7.52

Which pIC50 value belongs to NC1CCCOC1c1sc2c(NCc3ccccc3F)cc(Cl)nc2c1Cl (mixture of isomers) ? 6.52 to 7.52

For the compound shown here, CCc1c([C@@H]2CCCCCC[C@H]2N)sc2c(NCc3cccs3)cc(Cl)nc12 , give the reported pIC50. < 6.00

// returns reported pIC50 for input N[C@H]1CC=CC[C@@H]1c1sc2c(NCc3cccs3)cc(Cl)nc2c1C#Cc1cccnc1 6.52 to 7.52

Entry N[C@@H]1[C@@H](O)C=CC[C@H]1c1sc2c(NCc3cccs3)cc(Cl)nc2c1Cl.N[C@H]1[C@H](O)C=CC[C@@H]1c1sc2c(NCc3cccs3)cc(Cl)nc2c1Cl (mixture of isomers) has what pIC50? 6.52 to 7.52

For the compound N[C@H]1CCC[C@@H]1c1sc2c(NCc3cccs3)cc(Cl)nc2c1Cl , what pIC50 is on record? ≥ 7.52

Look up pIC50 for this compound: N[C@H]1CC=CC[C@@H]1c1sc2c(NCc3cccs3)cc(Cl)nc2c1C#Cc1ccncc1Cl 6.00 to 6.52

Bench note: what pIC50 did N[C@@H]1CCCC[C@H]1c1sc2c(NCc3cccs3)cc(Cl)nc2c1COC(F)F.N[C@H]1CCCC[C@@H]1c1sc2c(NCc3cccs3)cc(Cl)nc2c1COC(F)F (mixture of isomers) show? 6.52 to 7.52

The measured values listed here are drawn from patent US20250382305A1.
